# credit: patent US10988477B2

Target: GCN2 kinase (Homo sapiens, UniProt Q9P2K8)
Experiment: GCN2 enzyme inhibition assay (Transcreener ADP2 fluorescence polarization)
Type: biochemical
Details: Enzyme activity for compounds of Formula IV; Ki(app), 280 μM ATP, 25° C.
Assay Endpoint: Ki

Sample records with Ki:
- Compound: "Cc1nnc([C@@H]2CN(c3ccnc(-c4cnc5cnc(C(F)(F)F)cn45)n3)C[C@H](C)O2)o1"
  Assay Endpoint: "Ki"
  Result: "100 to 1000 nM"
- Compound: "NCc1cccc(-c2ccnc(-c3cnc4cnc(C(F)F)cn34)n2)c1"
  Assay Endpoint: "Ki"
  Result: "100 to 1000 nM"
- Compound: "CC1CN(c2nccc(-c3cnc4cnc(C(F)(F)F)cn34)n2)CC(c2cn[nH]c2)O1 (single isomer, unassigned) [IV-200]"
  Assay Endpoint: "Ki"
  Result: "< 10 nM"
- Compound: "NC(=O)c1cn2c(-c3nccc(N4CCCCC4CO)n3)cnc2cn1 (stereo not shown)"
  Assay Endpoint: "Ki"
  Result: "100 to 1000 nM"

Return Ki measured with GCN2 kinase (Homo sapiens, UniProt Q9P2K8) given this compound: O=C(Nc1cccnc1)[C@H]1CCCN(c2ccnc(-c3cnc4cnc(C(F)(F)F)cn34)n2)C1
100 to 1000 nM

What measured Ki is associated with FC(F)(F)c1cn2c(-c3nccc(N4CCC(COc5ccccc5)C4)n3)cnc2cn1 (stereo not shown) on GCN2 kinase (Homo sapiens, UniProt Q9P2K8)?
100 to 1000 nM

Hi! What's the reported Ki for CC1CN(c2ccnc(-c3cnc4cnc(C(F)(F)F)cn34)n2)CC(c2cn[nH]c2C(F)(F)F)N1 (single isomer, unassigned) [IV-475] on GCN2 kinase (Homo sapiens, UniProt Q9P2K8)?
10 to 100 nM

# value lookup — system GCN2 kinase (Homo sapiens, UniProt Q9P2K8), readout Ki, item O=C(NCCO)C1CCCN(c2ccnc(-c3cnc4cnc(C(F)(F)F)cn34)n2)C1 (stereo not shown)
100 to 1000 nM

Please tell me: Ki of CC1CN(c2ccnc(-c3cnc4cnc(C#N)cn34)n2)CC(c2cn[nH]c2)O1 (stereo not shown) [IV-194] , system GCN2 kinase (Homo sapiens, UniProt Q9P2K8)?
< 10 nM

Please state recorded Ki (tested on GCN2 kinase (Homo sapiens, UniProt Q9P2K8)) of Clc1cn2c(-c3nccc(N4CCOC(c5cn[nH]c5)C4)n3)cnc2cn1 (stereo not shown)
< 10 nM

Which Ki is reported with GCN2 kinase (Homo sapiens, UniProt Q9P2K8) for this entry: O=C1NC(=O)C2(CCN(c3ccnc(-c4cnc5cnc(C(F)(F)F)cn45)n3)C2)N1 (stereo not shown) ?
100 to 1000 nM

Given the entry O=C(N[C@H]1CCCN(c2ccnc(-c3cnc4cnc(C(F)(F)F)cn34)n2)C1)c1cc[nH]n1 , what Ki was observed with GCN2 kinase (Homo sapiens, UniProt Q9P2K8)?
> 1000 nM

Look up Ki with GCN2 kinase (Homo sapiens, UniProt Q9P2K8) for this compound: FC(F)(F)c1cn2c(-c3nccc(N4CCC5(CC4)CNC5)n3)cnc2cn1
100 to 1000 nM

Field: Ki (GCN2 kinase (Homo sapiens, UniProt Q9P2K8)). Entry: N#Cc1cn2c(-c3nccc(N4CCCC(c5c[nH]cn5)C4)n3)cnc2cn1 (stereo not shown)
10 to 100 nM

Identify the measured Ki of CS(=O)(=O)NCC1CCN(c2ccnc(-c3cnc4cnc(C(F)F)cn34)n2)C1 (stereo not shown) for GCN2 kinase (Homo sapiens, UniProt Q9P2K8).
100 to 1000 nM

# get_value(readout= Ki, system= GCN2 kinase (Homo sapiens, UniProt Q9P2K8)) for CN1CCN(c2ccnc(-c3cnc4cnc(C(N)=O)cn34)n2)CC1
100 to 1000 nM

Provide value of Ki for this record tested with GCN2 kinase (Homo sapiens, UniProt Q9P2K8): NC(=O)c1cn2c(-c3cccc(N4CCN5C(=O)CCCC5C4)n3)cnc2cn1 (stereo not shown)
< 10 nM

====

# key: entry, value: IC50
Biological target: intracellular GCN2 (phosphorylation of the GCN2 substrate eIF2α) (Homo sapiens, UniProt Q9P2K8)
Sequence (Q9P2K8 whole entry): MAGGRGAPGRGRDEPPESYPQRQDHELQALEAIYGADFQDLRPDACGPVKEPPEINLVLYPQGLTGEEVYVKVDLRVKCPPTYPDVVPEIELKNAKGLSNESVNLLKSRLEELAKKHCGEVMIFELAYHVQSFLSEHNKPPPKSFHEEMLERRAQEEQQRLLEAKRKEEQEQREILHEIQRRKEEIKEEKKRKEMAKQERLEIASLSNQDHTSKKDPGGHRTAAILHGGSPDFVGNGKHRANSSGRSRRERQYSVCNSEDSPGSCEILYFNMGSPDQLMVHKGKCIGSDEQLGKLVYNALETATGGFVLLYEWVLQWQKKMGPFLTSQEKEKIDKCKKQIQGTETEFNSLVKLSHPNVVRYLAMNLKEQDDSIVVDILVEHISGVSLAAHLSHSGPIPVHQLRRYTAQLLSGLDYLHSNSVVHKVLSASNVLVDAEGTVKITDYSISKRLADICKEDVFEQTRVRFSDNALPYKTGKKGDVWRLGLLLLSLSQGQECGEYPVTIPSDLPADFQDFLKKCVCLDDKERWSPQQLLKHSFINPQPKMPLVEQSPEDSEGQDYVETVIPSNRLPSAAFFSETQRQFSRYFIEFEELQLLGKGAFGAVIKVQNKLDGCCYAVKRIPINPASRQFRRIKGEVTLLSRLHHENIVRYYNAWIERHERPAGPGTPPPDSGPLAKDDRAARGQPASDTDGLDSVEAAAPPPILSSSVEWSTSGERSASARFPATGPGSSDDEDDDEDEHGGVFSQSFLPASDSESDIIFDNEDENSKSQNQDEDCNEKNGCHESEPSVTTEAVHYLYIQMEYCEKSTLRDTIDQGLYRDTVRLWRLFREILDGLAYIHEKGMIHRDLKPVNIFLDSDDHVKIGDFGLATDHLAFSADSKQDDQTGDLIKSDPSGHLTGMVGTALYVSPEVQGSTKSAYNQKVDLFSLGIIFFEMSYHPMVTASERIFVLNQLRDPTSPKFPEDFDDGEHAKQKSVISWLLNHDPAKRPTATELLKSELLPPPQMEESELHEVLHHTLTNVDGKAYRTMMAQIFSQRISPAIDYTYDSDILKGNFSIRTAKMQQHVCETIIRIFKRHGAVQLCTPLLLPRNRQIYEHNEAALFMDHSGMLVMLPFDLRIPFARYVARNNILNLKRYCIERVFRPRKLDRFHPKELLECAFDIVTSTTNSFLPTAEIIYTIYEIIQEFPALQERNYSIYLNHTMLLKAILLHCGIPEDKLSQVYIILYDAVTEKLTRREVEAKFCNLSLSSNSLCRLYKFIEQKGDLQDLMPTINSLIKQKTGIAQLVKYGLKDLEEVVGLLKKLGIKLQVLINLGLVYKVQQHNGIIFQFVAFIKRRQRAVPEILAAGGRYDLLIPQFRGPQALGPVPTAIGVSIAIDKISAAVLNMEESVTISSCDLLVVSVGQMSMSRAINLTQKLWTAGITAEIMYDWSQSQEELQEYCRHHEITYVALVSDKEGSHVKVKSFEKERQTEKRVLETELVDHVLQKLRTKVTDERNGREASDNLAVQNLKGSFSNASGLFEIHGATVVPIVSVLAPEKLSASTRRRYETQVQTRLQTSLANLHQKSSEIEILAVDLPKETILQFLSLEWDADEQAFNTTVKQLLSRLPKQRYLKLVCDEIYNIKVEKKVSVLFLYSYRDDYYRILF
Assay: GCN2 cellular inhibition assay (AlphaScreen SureFire P-eIF2α Ser51, borrelidin-treated U2OS cells)
Format: cell-based
Details: compounds of Formula IV; biomarker assay, phosphorylated eIF2α Ser51 in borrelidin-treated U2OS cells

- Compound: "O=C(C1CCCN(c2ccnc(-c3cnc4cnc(C(F)F)cn34)n2)C1)N1CCNCC1 (stereo not shown)"
  Assay Endpoint: "IC50"
  Result: "> 5 µM"

GET /values?readout=IC50&item= OCC1CCN(c2ccnc(-c3cnc4cnc(C(F)(F)F)cn34)n2)CC1
> 5 µM

What measured IC50 goes with NC(=O)c1cn2c(-c3nccc(N4CCOC(c5cn[nH]c5)C4)n3)cnc2cn1 (stereo not shown) ?
> 5 µM

Report IC50 for CC(=O)N1CCN(c2cccc(-c3cnc4cnc(C(N)=O)cn34)n2)CC1 please.
< 0.5 µM

Which measured IC50 value corresponds to CC1CN(c2ccnc(-c3cnc4cnc(C(F)(F)F)cn34)n2)CC(c2cn[nH]c2)O1 (single isomer, unassigned) [IV-13] ?
< 0.5 µM

Recorded IC50 for NC(=O)c1cn2c(-c3cccc(N4CCN5C(=O)CCCC5C4)n3)cnc2cn1 (stereo not shown) , please?
0.5 to 5 µM

Fill in the blank: the reported IC50 of NS(=O)(=O)N1CCCN(c2ccnc(-c3cnc4cnc(C(F)F)cn34)n2)CC1 is ____.
> 5 µM

Returns the measured IC50 for the input compound. Input: CC(C)(O)C1CC(c2cn[nH]c2)CN(c2ccnc(-c3cnc4cnc(C(F)(F)F)cn34)n2)C1 (single isomer, unassigned) [IV-684]
< 0.5 µM

Value lookup for IC50; key = Oc1cccc(-c2ccnc(-c3cnc4cnc(C(F)F)cn34)n2)c1
> 5 µM

// lookup IC50 for NCC1CCCN(c2ccnc(-c3cnc4cnc(C(F)F)cn34)n2)C1 (stereo not shown)
> 5 µM

// lookup IC50 for CC1CN(c2ccnc(-c3cnc4cnc(C(F)(F)F)cn34)n2)C(C)C(c2cnn(C)c2)N1 (stereo not shown)
0.5 to 5 µM

Which IC50 value belongs to Cc1[nH]ncc1C1CN(c2ccnc(-c3cnc4cnc(C(F)F)cn34)n2)CC(C)N1 (single isomer, unassigned) [IV-462] ?
> 5 µM

I would be grateful if you could share the reported IC50 for CC1(C)CN(c2ccnc(-c3cnc4cnc(Cl)cn34)n2)CC(c2cn[nH]c2)N1 (stereo not shown) .
0.5 to 5 µM

If you can, please state the reported IC50 value of C[C@@H]1CN(c2ccnc(-c3cnc4cnc(Br)cn34)n2)C[C@H](c2cn[nH]c2)N1 (racemic) .
0.5 to 5 µM

Would you kindly share the measured IC50 for CC1CN(c2ccnc(-c3cnc4cnc(C(F)(F)F)cn34)n2)CC(c2cn[nH]c2)O1 (stereo not shown) [IV-10] ?
< 0.5 µM

Which IC50 is reported for this compound? CC1CN(c2ccnc(-c3cnc4cnc(Cl)cn34)n2)CC(c2cn[nH]c2)O1 (single isomer, unassigned) [IV-217]
< 0.5 µM

Give its IC50 value. Item: CC1CN(c2nccc(-c3cnc4cnc(C(F)F)cn34)n2)CC(CNS(C)(=O)=O)C1(F)F (stereo not shown)
> 5 µM

Quick check: IC50 of FC(F)(F)c1cn2c(-c3nccc(N4CCCC(c5cocn5)C4)n3)cnc2cn1 (stereo not shown) ?
> 5 µM

Requested read-out: IC50. Entry: OC1CCCN(c2ccnc(-c3cnc4cnc(C(F)F)cn34)n2)C1 (stereo not shown)
> 5 µM

I would be grateful if you could share the reported IC50 for O=S(=O)(NC1CCCC1)C1CCCN(c2ccnc(-c3cnc4cnc(C(F)F)cn34)n2)C1 (stereo not shown) .
> 5 µM

Find the recorded IC50 belonging to CC1CC(CS(C)(=N)=O)C(C)N(c2ccnc(-c3cnc4cnc(C(F)F)cn34)n2)C1 (single isomer, unassigned) [IV-366] and report it.
> 5 µM

====

Molecular target: GCN2 kinase (Homo sapiens, UniProt Q9P2K8)
Experiment: GCN2 enzyme inhibition assay (Transcreener ADP2 fluorescence polarization)
Type: biochemical
Details: compounds of Formula II; 280 μM ATP, 4 nM GCN2 kinase
pKi: −log10 of the molar value. Counter-ions that a name gives are not always drawn.
Assay Endpoint: pKi

Examples with their reported pKi follow.
- Compound: "CNc1cc(-c2cnc3ccc(C(F)F)nn23)cc(N2CCC(F)(F)C(CNS(C)(=O)=O)C2)n1 (stereo not shown)"
  Subject Of Test: "GCN2 kinase (Homo sapiens, UniProt Q9P2K8)"
  Assay Endpoint: "pKi"
  Result: "> 8.00"
- Compound: "CC(O)c1ccc2ncc(-c3cc(N4CCO[C@H](CNS(C)(=O)=O)C4)ncn3)n2n1 (stereo partly shown) [II-338, trifluoroacetate]"
  Subject Of Test: "GCN2 kinase (Homo sapiens, UniProt Q9P2K8)"
  Assay Endpoint: "pKi"
  Result: "6.00 to 8.00"
- Compound: "OCCC1CN(c2cc(-c3cnc4ccc(C(F)(F)F)nn34)ncn2)CCO1 (stereo not shown)"
  Subject Of Test: "GCN2 kinase (Homo sapiens, UniProt Q9P2K8)"
  Assay Endpoint: "pKi"
  Result: "6.00 to 8.00"
- Compound: "NS(=O)(=O)N1CCC2CCN(c3cc(-c4cnc5ccc(C(F)F)nn45)ncn3)C2C1 (stereo not shown)"
  Subject Of Test: "GCN2 kinase (Homo sapiens, UniProt Q9P2K8)"
  Assay Endpoint: "pKi"
  Result: "> 8.00"
- Compound: "Cc1noc([C@H]2CN(c3cc(-c4cnc5ccc(C(F)(F)F)nn45)ccn3)C[C@@H](C)O2)n1"
  Subject Of Test: "GCN2 kinase (Homo sapiens, UniProt Q9P2K8)"
  Assay Endpoint: "pKi"
  Result: "6.00 to 8.00"
- Compound: "NC(=O)C1CN(c2cc(-c3cnc4ccc(C(F)F)nn34)ccn2)CCO1 (stereo not shown)"
  Subject Of Test: "GCN2 kinase (Homo sapiens, UniProt Q9P2K8)"
  Assay Endpoint: "pKi"
  Result: "6.00 to 8.00"
- Compound: "NS(=O)(=O)N1CC2OCCN(c3cc(-c4cnc5ccc(C(F)F)nn45)ncn3)C2C1 (stereo not shown)"
  Subject Of Test: "GCN2 kinase (Homo sapiens, UniProt Q9P2K8)"
  Assay Endpoint: "pKi"
  Result: "6.00 to 8.00"
- Compound: "CC1CN(c2cc(-c3cnc4ccc(C(F)F)nn34)ncn2)CC(CNS(C)(=O)=O)N1C (stereo not shown)"
  Subject Of Test: "GCN2 kinase (Homo sapiens, UniProt Q9P2K8)"
  Assay Endpoint: "pKi"
  Result: "6.00 to 8.00"
- Compound: "O=S(=O)(NCC1CCCN(c2cc(-c3cnc4ccc(C(F)F)nn34)ncn2)C1)C1CC1 (stereo not shown)"
  Subject Of Test: "GCN2 kinase (Homo sapiens, UniProt Q9P2K8)"
  Assay Endpoint: "pKi"
  Result: "> 8.00"
- Compound: "CS(=O)(=O)NC1CCC2(CCN(c3cc(-c4cnc5ccc(C(F)F)nn45)ncn3)C2)C1 (single isomer, unassigned) [II-100]"
  Subject Of Test: "GCN2 kinase (Homo sapiens, UniProt Q9P2K8)"
  Assay Endpoint: "pKi"
  Result: "6.00 to 8.00"

Now look at this entry.
Dear colleague, I am looking for the recorded pKi of the following compound: CS(=O)(=O)NCC1CCCN(c2cc(-c3cnc4ccc(C(F)F)nn34)cc(N3CC4(CCO4)C3)n2)C1 (stereo not shown)
> 8.00
